For each record, write down the corresponding TGI.
Tested on: LXFL 529 NSCLC
assay-procedure: NCI tumour cell line growth inhibition, 48 h

Asked: Given the compound Nc1ccc2nc(NCc3ccc(F)cc3)cnc2c1 , what is its reported TGI?
Given back: > 100 µM

Asked: Can you look up the measured TGI of [Cl][Sn]([Cl])([c]1ccccc1)[c]1ccccc1 for me?
Given back: 2.93 µM

Asked: Entry under review: NC(=O)c1cccc(C2OC(COP(=O)(O)O)C(O)C2O)c1 (stereo not drawn) . Reported TGI?
Given back: > 50 µM

Asked: Form field: reported TGI of O=C(O)C1=CCCc2ccc3ccccc3c21
Given back: > 100 µM

Asked: Would you kindly share the measured TGI for O=C1[C@@H]2C(c3ccc(Cl)cc3Cl)=NO[C@@H]2C(=O)N1c1ccc(Cc2ccc(N3C(=O)[C@H]4C(c5ccc(Cl)cc5Cl)=NO[C@H]4C3=O)cc2)cc1 ?
Given back: 52.2 µM

Asked: Fill in the blank: the reported TGI of CSc1nc(NC2OCC(OC(C)=O)C(OC(C)=O)C2OC(C)=O)c(N=C(C)C(C)=O)c(=O)[nH]1 (stereo not drawn) is ____.
Given back: > 100 µM

Asked: # input compound: CSc1cccc(-n2c3nc(=O)n(C)c(=O)c-3nc3ccccc32)c1 ; wanted: its TGI
Given back: 26.2 µM

Asked: // lookup TGI for Cc1ccc(NP(=O)(Oc2ccccc2)N(CCCl)CCCl)cc1 (stereo not drawn)
Given back: > 100 µM

Asked: Using the record for CCOCN1COCN=C1NC#N , report its TGI.
Given back: > 100 µM

Asked: Name the recorded TGI for COC(=O)C1CCC(Nc2ccc(C)cc2C)=N1 (stereo not drawn) .
Given back: > 100 µM

Asked: # TGI lookup, item COC(c1cccc(C(O)(C(F)(F)F)C(F)(F)F)c1)(C(F)(F)F)C(F)(F)F
Given back: 32 µM

Asked: I would be grateful if you could share the reported TGI for CN(C)c1nc(N(C)C)nc(N(C)CN(C)c2ccc(Cl)cc2)n1 .
Given back: > 100 µM

Asked: What value of measured TGI is listed for CC1(Cl)CC2OC3(Br)C=CC(C)(O)C2(CC1Br)C3(C)C (stereo not drawn) ?
Given back: > 100 µM

Asked: Consider the compound shown here: COc1ccc(NC(=O)CC(=O)N2N=C(N(CCC#N)c3ccccc3Cl)CC2c2ccccc2)cc1 (stereo not drawn) What is its recorded TGI?
Given back: > 100 µM

Asked: What TGI value was documented for this compound, Cc1oc2c(C)c3oc(=O)cc(C)c3cc2c1CNC(=O)[C@@H]1OCCOCCOCCOCCOCCOC1C(=O)O (stereo partly drawn) ?
Given back: 27.7 µM

Asked: Look at this compound and give its reported TGI. CCCOC(=O)C1CCC(=O)N1C(=O)C(C)Cl (stereo not drawn)
Given back: > 100 µM

Asked: Consider the compound NC(=O)C#CC#CC#CCO and give its measured TGI.
Given back: 2.35 µM

Asked: Which TGI is reported for this compound? COc1ccc(/C(Cl)=C(/c2ccc(O)cc2)c2ccc(OCCN(C)C)cc2)cc1
Given back: 22.6 µM

###

Tested on: MALME-3M melanoma
assay-procedure: NCI tumour cell line growth inhibition, 48 h
property-name: TGI

Asked: Give TGI (MALME-3M melanoma) of the following compound: COc1cccc(C2C3=C(COC3=O)N(CCO)c3cc(OC)ccc32)c1 (stereo not given)
Given back: > 100 µM

Asked: Checklist item: TGI tested on MALME-3M melanoma, entry CN(c1cc2ncc(=O)[nH]c2cc1NC(N)=NCc1ccc(Cl)cc1)C1CCCCC1 , value?
Given back: 17.5 µM

Asked: Request - read-out TGI | tested on MALME-3M melanoma | compound COC(=O)C1CCC(Nc2ccc(C)cc2C)=N1 (stereo not given)
Given back: > 100 µM

Asked: Observed TGI on MALME-3M melanoma for CC1(Cl)CC2OC3(Br)C=CC(C)(O)C2(CC1Br)C3(C)C (stereo not given) , please.
Given back: > 100 µM

Asked: // fetch MALME-3M melanoma TGI for C=C1[C@H](OC(=O)C(C)C)[C@]23CC4(O)[C@@H]5[C@@]6(C)CCC[C@]57C([C@@H]2C[C@@]1(O)[C@H](O)[C@@H]73)N4C6
Given back: > 100 µM

Asked: Any idea what TGI came out for COc1ccc(C2CC(c3cccc(Nc4ccncc4)c3)=NN2c2ccc(Cl)cc2)cc1 (stereo not given) on MALME-3M melanoma?
Given back: 3.15 µM

Asked: # returns recorded TGI (system: MALME-3M melanoma) for CC1=C(/C=C/C(=O)O)C(C)(C)CCC1
Given back: > 100 µM

Asked: Entry CS(=O)(=O)OC1CN2CCC1CC2 (stereo not given) , system MALME-3M melanoma: what TGI was measured?
Given back: > 100 µM

Asked: Find TGI (MALME-3M melanoma) for the entry CC(C)Nc1ccc(Nc2ccccc2)cc1
Given back: 43.2 µM

Asked: Requested read-out TGI, target or system MALME-3M melanoma, entry CC(=O)N1c2ccccc2C2=CC3C4C(=O)N(c5ccccc5)C(=O)C4C21C1C(=O)N(c2ccccc2)C(=O)C31 (stereo not given)
Given back: > 100 µM
